Reference for the values: patent US20210388087A1

Target: T1, CD3 epsilon homodimer protein (UniProt P07766 23-126)
T1 construct: also called CD3 (CD3 epsilon)
T1 sequence (P07766 23-126): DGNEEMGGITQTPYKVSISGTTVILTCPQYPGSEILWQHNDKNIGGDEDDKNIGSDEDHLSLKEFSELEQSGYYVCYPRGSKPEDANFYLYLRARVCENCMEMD
Assay summary: SPR, antibody over immobilised CD3e homodimer;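 also: SPR at 25 °C with CD3 epsilon homodimer amine-coupled to a CM4 sensor chip and antibody flowed over as analyte in HBS-EP+ running buffer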
Listed binders paired with reported KD ratio to GLS3000
The answer should be written as a number, with no unit following it.

Known KD ratio to GLS3000 results, listed for orientation:
Binder	Reported measurement
CE115HA000/GLS3000 S27aN (antibody, IgG1, name in Kabat numbering, V domains shown, one-arm IgG1) VH: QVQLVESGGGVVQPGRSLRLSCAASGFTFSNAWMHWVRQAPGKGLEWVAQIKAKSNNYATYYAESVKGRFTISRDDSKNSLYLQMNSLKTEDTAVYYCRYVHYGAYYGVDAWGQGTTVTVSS VL: DIVMTQSPLSLPVTPGEPASISCRSSQNLVHSNRNTYLHWYQQKPGQAPRLLIYKVSNRFSGVPDRFSGSGSGTDFTLKISRVEAEDVGVYYCGQGTQVPYTFGQGTKLEIK	0.98
CE115HA000/GLS3000 T31P (antibody, IgG1, name in Kabat numbering, V domains shown, one-arm IgG1) VH: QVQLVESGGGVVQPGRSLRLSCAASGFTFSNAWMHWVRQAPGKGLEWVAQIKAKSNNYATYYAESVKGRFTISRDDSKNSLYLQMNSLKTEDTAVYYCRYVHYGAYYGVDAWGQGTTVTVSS VL: DIVMTQSPLSLPVTPGEPASISCRSSQSLVHSNRNPYLHWYQQKPGQAPRLLIYKVSNRFSGVPDRFSGSGSGTDFTLKISRVEAEDVGVYYCGQGTQVPYTFGQGTKLEIK	10.8

Then there is this binder:
What does the data say about its KD ratio to GLS3000? Entry: CE115HA000/GLS3000 V94F (antibody, IgG1, name in Kabat numbering, V domains shown, one-arm IgG1) VH: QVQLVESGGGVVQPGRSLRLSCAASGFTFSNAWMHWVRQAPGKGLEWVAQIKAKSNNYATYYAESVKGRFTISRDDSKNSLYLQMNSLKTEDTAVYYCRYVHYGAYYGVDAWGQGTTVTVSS VL: DIVMTQSPLSLPVTPGEPASISCRSSQSLVHSNRNTYLHWYQQKPGQAPRLLIYKVSNRFSGVPDRFSGSGSGTDFTLKISRVEAEDVGVYYCGQGTQFPYTFGQGTKLEIK
1.75
